Experiment: Cytotoxicity against human TZM-bl cells assessed as reduction in cell viability by AlamarBlue assay
Type: cell-based
// returns NO unless CC50 is strictly below 60 µM, in which case YES

CC1(C)S[C@H]2N(C(=O)C23C=C(C(=O)Oc2ccc4ccccc4c2)N=N3)[C@H]1C(=O)OC(c1ccccc1)c1ccccc1 (some centres undefined)
YES
CCOC(=O)C1=CCC(C(=O)c2ccccc2)C12C(=O)N1[C@@H](C(=O)OC(c3ccccc3)c3ccccc3)C(C)(C)S[C@@H]12 (some centres undefined)
YES
CCOC(=O)C1=CC2(N=N1)C(=O)N1[C@@H](C(=O)OC(c3ccccc3)c3ccccc3)C(C)(C)S[C@@H]12 (some centres undefined)
YES
CCOC(=O)C1=CC2(N=N1)C(=O)N1[C@@H](C(=O)O)C(C)(C)S[C@@H]12 (some centres undefined)
NO
CC1(C)S[C@H]2N(C(=O)C23C=C(C(=O)OC(c2ccccc2)c2ccccc2)N=N3)[C@H]1C(=O)OC(c1ccccc1)c1ccccc1 (some centres undefined)
YES

[Q] Is CC50 of CC1(C)S[C@H]2N(C(=O)C23NN=C(C(=O)OCc2ccccc2)C3C(=O)c2ccccc2)[C@H]1C(=O)OC(c1ccccc1)c1ccccc1 (some centres undefined) strictly below 60 µM?
[A] YES

[Q] Is CC50 of CC(C)(C)OC(=O)C1=CC2(N=N1)C(=O)N1[C@@H](C(=O)OC(c3ccccc3)c3ccccc3)C(C)(C)S[C@@H]12 (some centres undefined) strictly below 60 µM?
[A] YES

[Q] Is CC50 of COC(=O)C1=CCC2(C(=O)N3[C@@H](C(=O)OC(c4ccccc4)c4ccccc4)C(C)(C)S[C@@H]32)C1C(=O)c1ccccc1 (some centres undefined) strictly below 60 µM?
[A] YES

[Q] Is CC50 of CC1(C)S[C@H]2N(C(=O)C23C=C(C(=O)Oc2ccc4ccccc4c2)N=N3)[C@H]1C(=O)O (some centres undefined) strictly below 60 µM?
[A] NO

* * *

Test: Cytotoxicity against human TZM-bl cells assessed as reduction in cell viability by AlamarBlue assay
Format: cell-based
Hi there, I'd appreciate the recorded CC50 for every entry that follows.
Give bare numbers, in µM.

Report CC50 for each item below.
1. CCOC(=O)C1=CCC2(C(=O)N3[C@@H](C(=O)OC(c4ccccc4)c4ccccc4)C(C)(C)S[C@@H]32)C1C(=O)c1ccccc1 (stereo not given in full)
2. CC1(C)S[C@H]2N(C(=O)C23CC=C(C(=O)OCc2ccccc2)C3C(=O)c2ccccc2)[C@H]1C(=O)O (stereo not given in full)
3. CC1(C)S[C@H]2N(C(=O)C23N=NC(C(=O)OC(c2ccccc2)c2ccccc2)=C3C(=O)OC(c2ccccc2)c2ccccc2)[C@H]1C(=O)OC(c1ccccc1)c1ccccc1 (stereo not given in full)
4. COC(=O)C1=CCC(C(=O)c2ccccc2)C12C(=O)N1[C@@H](C(=O)OC(c3ccccc3)c3ccccc3)C(C)(C)S[C@@H]12 (stereo not given in full)
5. CC1(C)S[C@H]2N(C(=O)C23C=C(C(=O)O)N=N3)[C@H]1C(=O)O (stereo not given in full)
6. CC(C)(C)OC(=O)C1=CCC(C(=O)c2ccccc2)C12C(=O)N1[C@@H](C(=O)OC(c3ccccc3)c3ccccc3)C(C)(C)S[C@@H]12 (stereo not given in full)
7. CC1(C)S[C@H]2N(C(=O)C23C(C(=O)OCc2ccccc2)=CCC3C(=O)c2ccccc2)[C@H]1C(=O)O (stereo not given in full)
8. CC(C)(C)OC(=O)C1=CCC2(C(=O)N3[C@@H](C(=O)OC(c4ccccc4)c4ccccc4)C(C)(C)S[C@@H]32)C1C(=O)c1ccccc1 (stereo not given in full)

[A]
1: 59; 2: 60.3; 3: 33.5; 4: 54.9; 5: 101; 6: 43.2; 7: 56.6; 8: 44.4

Report CC50 for each item below.
1. COC(=O)[C@@H]1N2C(=O)C3(C(C(=O)OCc4ccccc4)=CCC3C(=O)c3ccccc3)[C@H]2SC1(C)C (stereo not given in full)
2. CC(C)(C)OC(=O)C1=CC2(N=N1)C(=O)N1[C@@H](C(=O)O)C(C)(C)S[C@@H]12 (stereo not given in full)

[A]
1. 55.4
2. 79
